- System: Bacteria
- method-notes: MIC ratio measured as the mean MICs of gram-negative bacteria
- Type: functional
I'd appreciate it if you could supply Geometric mean MIC over Gram-negative bacteria (µg/mL) values for the items below.
// return a plain number; no unit text

Enquiry: Look up Geometric mean MIC over Gram-negative bacteria (µg/mL) of `CCn1cc(C(=O)O)c(=O)c2cc(F)c(N3CCNCC3)c(F)c21` and report it.
Return: 0.17

Enquiry: Look up Geometric mean MIC over Gram-negative bacteria (µg/mL) of CCNCC1CCN(c2c(F)c(N)c3c(=O)c(C(=O)O)cn(C4CC4)c3c2F)C1 (stereo not given) and report it.
Return: 0.075

Enquiry: Look up Geometric mean MIC over Gram-negative bacteria (µg/mL) of CC1COc2c(N3CCC(N)C3)c(F)cc3c(=O)c(C(=O)O)cn1c23 (stereo not given) and report it.
Return: 0.46

Enquiry: Look up Geometric mean MIC over Gram-negative bacteria (µg/mL) of CCn1cc(C(=O)O)c(=O)c2c(N)c(F)c(N3CCC(N)C3)c(F)c21 (stereo not given) and report it.
Return: 0.3

Enquiry: Look up Geometric mean MIC over Gram-negative bacteria (µg/mL) of CCNCC1CCN(c2c(F)cc3c(=O)c(C(=O)O)cn(CC)c3c2Cl)C1 (stereo not given) and report it.
Return: 0.69

Enquiry: Look up Geometric mean MIC over Gram-negative bacteria (µg/mL) of CCn1cc(C(=O)O)c(=O)c2cc(F)c(N3CCC(N)C3)c(Cl)c21 (stereo not given) and report it.
Return: 0.13

Enquiry: Look up Geometric mean MIC over Gram-negative bacteria (µg/mL) of CCNCC1CCN(c2cc3c(cc2F)c(=O)c(C(=O)O)cn3CC)C1 (stereo not given) and report it.
Return: 0.6

Enquiry: Look up Geometric mean MIC over Gram-negative bacteria (µg/mL) of CCn1cc(C(=O)O)c(=O)c2cc(F)c(N3CC(C)NC(C)C3)c(F)c21 (stereo not given) and report it.
Return: 0.79

Enquiry: Look up Geometric mean MIC over Gram-negative bacteria (µg/mL) of CCn1cc(C(=O)O)c(=O)c2cc(F)c(N3CCNC(C)C3)c(F)c21 (stereo not given) and report it.
Return: 0.26

Enquiry: Look up Geometric mean MIC over Gram-negative bacteria (µg/mL) of `O=C(O)c1cn(C2CC2)c2c(F)c(N3CCNCC3)c(F)cc2c1=O` and report it.
Return: 0.076

From: ChEMBL document CHEMBL1125826
